System: UO-31 renal
Experiment: NCI tumour cell line growth inhibition, 48 h
Reported values of TGI for individual entries

| compound | system | censoring-sign | TGI [µM] |
| --- | --- | --- | --- |
| CCN=c1cc2sc3cc(NCC)c(C)cc3nc-2cc1C | UO-31 renal | = | 16.4 |
| NC(=O)C(c1ccccc1)N1OC2C(=O)N(c3cccc4ccccc34)C(=O)C2C1c1c2ccccc2c(Cl)c2ccccc12 (stereo not given) | UO-31 renal | = | 20.3 |
| Cc1cc(-c2nnc(N)nc2-c2ccc(F)cc2)cc(Cl)n1 | UO-31 renal | > | 100 |
| C1CCN(C2OC3C(COC3N3CCCCC3)OC2OC2CCO[C@@H]2N2CCCCC2)CC1 (stereo not given in full) | UO-31 renal | > | 100 |
| CSC1=N/C(=C\c2ccco2)C(=O)N1CN1CCCCC1 | UO-31 renal | > | 100 |
